Entry source: patent US7462629B2

Target: human EDG-1 (Homo sapiens, UniProt P21453)
Construct: expressed in transfected cells
Sequence (P21453 whole entry): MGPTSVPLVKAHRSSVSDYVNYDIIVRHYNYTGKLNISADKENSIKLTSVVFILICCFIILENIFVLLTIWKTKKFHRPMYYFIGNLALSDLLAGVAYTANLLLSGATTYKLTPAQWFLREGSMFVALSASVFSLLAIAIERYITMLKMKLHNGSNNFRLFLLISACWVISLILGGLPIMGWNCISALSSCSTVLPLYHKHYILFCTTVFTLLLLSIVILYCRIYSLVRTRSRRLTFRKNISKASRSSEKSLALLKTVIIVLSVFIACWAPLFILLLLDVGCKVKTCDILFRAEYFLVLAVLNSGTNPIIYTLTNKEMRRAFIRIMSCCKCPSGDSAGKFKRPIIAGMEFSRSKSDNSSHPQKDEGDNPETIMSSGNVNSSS
Experiment: EDG-1 (S1P1) GTP [γ-35S] binding assay, membranes from CHO cells
Format: biochemical
Conditions: CHO membranes expressing human EDG-1
assay_readout: EC50 (nM)

1. O=C(O)CCN1CCc2cc(OCc3ccc(C4CCCCC4)c(C(F)(F)F)c3)ccc2C1
0.2
